Test system: Plasmodium falciparum
Test: GSK_TCMDC: Inhibition of Plasmodium falciparum 3D7 in whole red blood cells, using parasite LDH activity as an index of growth. Test compounds present at 2uM
Type: functional
measurement-kind: Inhibition (%)
Field: numeric (%). Do not append units.

compound	measurement-kind	recorded-measurement
CCN(CC)CCN(Cc1ccc(-c2ccc(C(F)(F)F)cc2)cc1)C(=O)Cn1c(SCc2ccc(F)cc2)cc(=O)c2ccccc21.O=C(O)C(O)C(O)C(=O)O	Inhibition	100
O=C(Nc1ccc(Cn2ncc(N3CCCNCC3)c(Cl)c2=O)cc1)Nc1cccc(C(F)(F)F)c1.O=C(O)C(F)(F)F	Inhibition	100
N=C1NC(=N)N(OCCCCCCON2C(=N)NC(=N)NC2C=Cc2ccccc2)C(C=Cc2ccccc2)N1 (stereo unspecified)	Inhibition	97
Fc1ccc2[nH]c(-c3ccc(-c4ccc(CN5CCN(c6ccncc6)CC5)cc4)cc3)nc2c1.O=C(O)C(F)(F)F	Inhibition	100

Sample CC(C)(C)c1cc(C(=O)N2CCN(c3cnccn3)CC2)n(Cc2ccccc2)n1 — what was its Inhibition?
92

State the recorded Inhibition for this entry: O=C(NC1CCCCCC1)C1CCCN(C(=O)c2ccc(O)c(-c3ccc(Cl)c(Cl)c3)c2)C1 (stereo unspecified)
98

// query Inhibition value for entry Cl.FC(F)(F)c1ccc2c(NCCNc3ccnc4cc(C(F)(F)F)ccc34)ccnc2c1
100

Request the reported Inhibition associated with Cc1c(Cl)cccc1N=C(S)NN=Cc1ccccn1
99

# lookup: Inhibition of CC(C)N1CCN(C(=O)c2ccc(CNCCCN3CCN(c4cccc(Cl)c4Cl)CC3)o2)CC1.Cl
98

Any idea what Inhibition was measured for CCCC(C)NC(=O)[C@H]1CNCCN1C(=O)CCCc1ccccc1.O=C(O)C(F)(F)F (stereo partly specified) ?
96

What does the record list as Inhibition for Cc1cc(N(C)C)nc(Nc2ccc(NC(=O)c3cccc(F)c3)cc2)n1 ?
100

Return reported Inhibition; argument: CC(C)NCc1ccc(-c2ccc(CN3CCCC(c4ccccc4)C3)cc2)c(C(=O)NCC2CCCCC2)c1.O=C(O)C(F)(F)F (stereo unspecified)
97

Can you look up the measured Inhibition of O=C(CNC(=O)c1ccc(O)cc1)Nc1cccc(-c2cccc(-c3nc4cc(C(F)(F)F)ccc4[nH]3)c2)c1 for me?
96

Consider the compound C#CCOc1ccc2ccccc2c1CNCCCCCCNCc1c(OCC#C)ccc2ccccc12.CS(=O)(=O)O and give its measured Inhibition.
100

What value of measured Inhibition is listed for CC1(C)C=C(c2ccncc2)c2cc(Cl)ccc2O1.Cl ?
97

# Inhibition lookup, item CN1CCCN(Cc2cccc(-c3cccc(NC(=O)c4ccc(Cl)cc4)c3)c2)CC1.O=C(O)C(F)(F)F
100

I would be grateful if you could share the reported Inhibition for NC(=O)c1cccc(CNC(=O)NC[C@H]2CN(Cc3ccc(Cl)c(Cl)c3)CCO2)c1 .
98

I'd like to know its Inhibition. The compound in question is Nc1c2c(nc3ccc(Oc4ccc(Br)cc4Br)cc13)CCCC2
99

Fill in: Inhibition of C[C@H](CNc1ccnc(Nc2ccc3[nH]c(=O)[nH]c3c2)n1)c1ccccc1 is ___
99

Would you mind telling me what Inhibition value was observed for COc1ccc(-c2c(C(F)(F)F)nn(C)c2NC(=O)Nc2ccc(F)cc2F)cc1 ?
100

What value of measured Inhibition is listed for Cc1c(C)n(Cc2ccccc2)c2ncnc(OC3CCN(CC(=O)NCC4CC4)CC3)c12 ?
92

Consider the compound N#Cc1ccc(N2CCN(C(=O)c3cccc(-c4noc(C(F)(F)F)n4)c3)CC2)nc1 and give its measured Inhibition.
84

Which value of Inhibition has been reported for O=C(/C=C/c1ccc2ccccc2c1)NCCCCCN1CCC(c2c[nH]c3ccccc23)CC1 in the records?
90

Which measured Inhibition value corresponds to O=C(Nc1ccc(-c2cccc(-c3nc4cc(F)ccc4[nH]3)c2)cc1)Nc1ccc(Cl)c(Cl)c1 ?
99

Look at this compound and give its reported Inhibition. CC(C)N1CCC(Oc2ccc(CN3CCN(C(c4ccccc4)c4ccc(Cl)cc4)CC3)cc2)CC1.Cl (stereo unspecified)
97

Which Inhibition value belongs to C#CCN(Cc1cc2c(=O)[nH]c(N)nc2cc1C)c1ccc(C(=O)N[C@@H](CCC(=O)O)C(=O)O)cc1 ?
92

What value of Inhibition has been recorded for this entry: Cc1ccnc(NC(=O)c2cc(-c3cccc([N+](=O)[O-])c3)nc3onc(C)c23)c1
91

Which Inhibition value belongs to CN(C)c1ccc(CN2CCC(NC(=O)c3ccc(-c4ccc(N(C)C)cc4)s3)CC2)cc1.O=C(O)C(F)(F)F ?
93

What does the record list as Inhibition for Cc1ccc(OCC2CCN(c3ncc(C(=O)NC4CC4)cc3Cl)CC2)cc1 ?
88

Look up Inhibition for this compound: Cc1cc(C(=O)N(Cc2ccc(-c3ccc(CNCCc4ccc(S(C)(=O)=O)cc4)cn3)cc2)C(C)CN(C)C)ccc1[N+](=O)[O-].O=C(O)C(F)(F)F (stereo unspecified)
99

# lookup: Inhibition of COc1cc2nc(N3CCN(c4nc(N)c5cc(OC)c(OC)cc5n4)CC3)nc(N)c2cc1OC
100

Record request: Inhibition value, item COc1ccc2ccccc2c1CCCCN1CCN(CC(c2ccc(F)cc2)N2CCN(C3CCCC3)CC2)CC1.O=C(O)C(F)(F)F (stereo unspecified)
88

Record request: Inhibition value, item Cn1nc(-c2ccc(CN[C@@H]3CCc4ccc(O)cc43)cc2)c2cnc(NC3CCCC3)nc21
97

I am curious: what Inhibition value has been reported for Cc1cc(Nc2ccccc2)nc(Nc2ccccc2)n1 ?
96

Which Inhibition value belongs to Cc1cccc(Cn2ccc3c4c(N)nc(N)nc4ccc32)c1 ?
95

Would you mind telling me what Inhibition value was observed for Br.N=C1c2ccccc2CN1CC(=O)c1ccc(Cl)c(Cl)c1 ?
98
